Biological target: RPMI 8866 cells (Homo sapiens, UniProt P13612+P26010)
Sequence (P13612 34-1032): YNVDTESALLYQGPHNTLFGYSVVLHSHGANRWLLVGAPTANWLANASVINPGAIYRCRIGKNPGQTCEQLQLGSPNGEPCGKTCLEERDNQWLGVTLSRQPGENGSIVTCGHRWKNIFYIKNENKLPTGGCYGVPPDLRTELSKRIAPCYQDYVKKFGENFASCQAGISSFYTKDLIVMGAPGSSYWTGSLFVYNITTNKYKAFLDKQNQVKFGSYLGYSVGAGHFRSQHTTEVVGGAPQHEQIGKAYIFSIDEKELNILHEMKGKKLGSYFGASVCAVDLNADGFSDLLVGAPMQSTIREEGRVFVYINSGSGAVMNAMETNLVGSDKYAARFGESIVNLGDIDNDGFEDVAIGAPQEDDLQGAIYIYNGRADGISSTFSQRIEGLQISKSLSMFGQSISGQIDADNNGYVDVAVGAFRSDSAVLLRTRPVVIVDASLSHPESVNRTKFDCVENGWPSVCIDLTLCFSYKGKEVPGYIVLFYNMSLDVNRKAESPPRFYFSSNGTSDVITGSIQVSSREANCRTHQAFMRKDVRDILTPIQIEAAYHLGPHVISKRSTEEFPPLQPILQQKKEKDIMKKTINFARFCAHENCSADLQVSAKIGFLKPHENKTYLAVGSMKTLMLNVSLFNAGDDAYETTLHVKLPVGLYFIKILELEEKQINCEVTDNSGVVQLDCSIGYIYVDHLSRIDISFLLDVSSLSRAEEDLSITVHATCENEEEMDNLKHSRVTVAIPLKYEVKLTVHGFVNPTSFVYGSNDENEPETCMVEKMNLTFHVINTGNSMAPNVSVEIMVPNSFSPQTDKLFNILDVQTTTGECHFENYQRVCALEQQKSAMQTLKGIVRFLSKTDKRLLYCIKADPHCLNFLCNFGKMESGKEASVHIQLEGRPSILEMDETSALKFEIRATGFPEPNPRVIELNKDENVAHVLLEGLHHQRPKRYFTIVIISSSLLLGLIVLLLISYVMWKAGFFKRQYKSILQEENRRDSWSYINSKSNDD
Sequence (P26010 20-798): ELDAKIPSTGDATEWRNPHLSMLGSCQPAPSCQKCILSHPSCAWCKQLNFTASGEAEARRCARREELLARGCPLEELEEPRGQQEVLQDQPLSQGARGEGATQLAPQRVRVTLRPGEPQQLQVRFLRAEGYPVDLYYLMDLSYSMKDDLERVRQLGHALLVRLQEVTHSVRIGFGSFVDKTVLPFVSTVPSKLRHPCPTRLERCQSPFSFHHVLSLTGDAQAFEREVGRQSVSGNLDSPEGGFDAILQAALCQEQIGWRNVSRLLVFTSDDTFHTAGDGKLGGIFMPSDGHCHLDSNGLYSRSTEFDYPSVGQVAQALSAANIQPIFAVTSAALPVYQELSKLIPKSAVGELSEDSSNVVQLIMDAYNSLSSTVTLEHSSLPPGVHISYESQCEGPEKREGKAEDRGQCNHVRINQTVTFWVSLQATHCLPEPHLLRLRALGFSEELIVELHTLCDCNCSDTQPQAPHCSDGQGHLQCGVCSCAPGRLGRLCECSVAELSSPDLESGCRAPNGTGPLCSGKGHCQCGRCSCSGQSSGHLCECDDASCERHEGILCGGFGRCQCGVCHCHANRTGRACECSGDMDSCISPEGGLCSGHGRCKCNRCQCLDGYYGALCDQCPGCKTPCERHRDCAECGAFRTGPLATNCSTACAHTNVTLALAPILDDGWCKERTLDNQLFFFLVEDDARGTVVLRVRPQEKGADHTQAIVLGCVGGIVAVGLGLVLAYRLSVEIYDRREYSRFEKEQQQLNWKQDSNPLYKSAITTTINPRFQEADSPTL
Assay: α4β7-MAdCAM Cell Adhesion Assay
Assay type: cell-based
Settings: thioether monomer peptides, Table 6; read-out: Cell-Adhesion A4B7
pIC50: −log10 of the molar value. Where a SMILES comes first, the peptide text is derived from it.
observable: pIC50

compound	pIC50
CC(C)C[C@@H]1NC(=O)[C@H]([C@@H](C)O)NC(=O)[C@H](CC(=O)O)NC(=O)[C@H](CO)NC(=O)[C@H](CCCNC(=N)N)N(C)C(=O)c2ccccc2CSC(C)(C)[C@@H](C(=O)N[C@@H](Cc2c[nH]c3ccccc23)C(=O)N[C@H](CCC(=O)O)C(=O)N[C@@H](CCC(=O)O)C(N)=O)NC1=O [compound 113] (HELM PEPTIDE1{[meR].S.D.T.L.[Pen].W.[dE].E.[am]}|CHEM1{[O=C(c1ccccc1C[*:2])[*:1]]}$PEPTIDE1,CHEM1,1:R1-1:R1|PEPTIDE1,CHEM1,6:R3-1:R2$$$V2.0)	7.00 to 7.60
CC(C)C[C@@H]1NC(=O)[C@H]([C@@H](C)O)NC(=O)[C@H](CC(=O)O)NC(=O)[C@H](CO)NC(=O)[C@H](CCCNC(=N)N)N(C)C(=O)c2ccccc2CSC[C@@H](C(=O)N2Cc3ccccc3C[C@H]2C(=O)N[C@H](CCCCN)C(=O)O)NC1=O [compound 118] (HELM PEPTIDE1{[meR].S.D.T.L.C.[Tic].[dK]}|CHEM1{[O=C(c1ccccc1C[*:2])[*:1]]}$PEPTIDE1,CHEM1,1:R1-1:R1|PEPTIDE1,CHEM1,6:R3-1:R2$$$V2.0)	6.00 to 7.00

Continue with the next compound.
Kindly state the measured pIC50 obtained for CC(C)C[C@@H]1NC(=O)[C@H]([C@@H](C)O)NC(=O)[C@H](CC(=O)O)NC(=O)[C@H](CO)NC(=O)[C@H](CCCNC(=N)N)N(C)C(=O)c2ccccc2CSC(C)(C)[C@@H](C(=O)N[C@@H](Cc2c[nH]c3ccccc23)C(=O)N[C@H](CCC(=O)O)C(=O)N[C@H](CO)C(N)=O)NC1=O [compound 106] (HELM PEPTIDE1{[meR].S.D.T.L.[Pen].W.[dE].[dS].[am]}|CHEM1{[O=C(c1ccccc1C[*:2])[*:1]]}$PEPTIDE1,CHEM1,1:R1-1:R1|PEPTIDE1,CHEM1,6:R3-1:R2$$$V2.0) with RPMI 8866 cells (Homo sapiens, UniProt P13612+P26010). 7.00 to 7.60

====

Assay: Simulated Intestinal Fluid (SIF) Stability Assay
Assay type: in vitro ADME
Conditions: pig, simulated intestinal fluid (SIF) with 1% porcine pancreatin, pH 6.5, porcine pancreatin, 37° C.; monomers, Table 6
Where a SMILES comes first, the peptide text is derived from it.
observable: half-life at 22 μM

# half-life at 22 μM lookup, item CC(C)C[C@@H]1NC(=O)[C@H]([C@@H](C)O)NC(=O)[C@H](CC(=O)O)NC(=O)[C@H](CO)NC(=O)[C@H](CCCNC(=N)N)N(C)C(=O)c2ccccc2CSC(C)(C)[C@@H](C(=O)N[C@@H](Cc2ccc3ccccc3c2)C(=O)N[C@H](CCC(=O)O)C(N)=O)NC1=O [compound 114] (HELM PEPTIDE1{[meR].S.D.T.L.[Pen].[O=C([C@H](Cc1ccc2ccccc2c1)N[*:1])[*:2]].[dE].[am]}|CHEM1{[O=C(c1ccccc1C[*:2])[*:1]]}$PEPTIDE1,CHEM1,1:R1-1:R1|PEPTIDE1,CHEM1,6:R3-1:R2$$$V2.0) > 3 h

====

Assay: Simulated Intestinal Fluid (SIF) Stability Assay
Type: in vitro ADME
Settings: simulated gi fluid, porcine pancreatin, 37° C.; dimers, Table 7
Where a SMILES comes first, the peptide text is derived from it.
Give measured half-life for each item. Keep answers brief.

# example entries with known answers
compound	half-life
CC(C)C[C@@H]1NC(=O)[C@H]([C@@H](C)O)NC(=O)[C@H](CC(=O)O)NC(=O)[C@H](CO)NC(=O)[C@H](CCCNC(=N)N)N(C)C(=O)c2ccccc2CSC(C)(C)[C@@H](C(=O)N[C@@H](Cc2c[nH]c3ccccc23)C(=O)N[C@H](CCC(=O)O)C(=O)N[C@H](CCCCN)C(N)=O)NC1=O [compound 150] (HELM PEPTIDE1{[meR].S.D.T.L.[Pen].W.[dE].[dK].[am]}|CHEM1{[O=C(c1ccccc1C[*:2])[*:1]]}$PEPTIDE1,CHEM1,1:R1-1:R1|PEPTIDE1,CHEM1,6:R3-1:R2$$$V2.0)	> 3 h
CC(C)C[C@@H]1NC(=O)[C@H]([C@@H](C)O)NC(=O)[C@H](CC(=O)O)NC(=O)[C@H](CO)NC(=O)[C@H](CCCNC(=N)N)N(C)C(=O)c2ccccc2CSC(C)(C)[C@@H](C(=O)N[C@@H](Cc2ccccc2)C(=O)N[C@H](CCC(=O)O)C(=O)N[C@H](CCCCN)C(N)=O)NC1=O [compound 155] (HELM PEPTIDE1{[meR].S.D.T.L.[Pen].F.[dE].[dK].[am]}|CHEM1{[O=C(c1ccccc1C[*:2])[*:1]]}$PEPTIDE1,CHEM1,1:R1-1:R1|PEPTIDE1,CHEM1,6:R3-1:R2$$$V2.0)	> 3 h
CC(C)C[C@@H]1NC(=O)[C@H]([C@@H](C)O)NC(=O)[C@H](CC(=O)O)NC(=O)[C@H](CO)NC(=O)[C@H](CCCNC(=N)N)N(C)C(=O)c2ccccc2CSC(C)(C)[C@@H](C(=O)N[C@@H](Cc2c[nH]c3ccccc23)C(=O)N[C@@H](CCC(=O)O)C(=O)N[C@H](CCCCN)C(N)=O)NC1=O [compound 146] (HELM PEPTIDE1{[meR].S.D.T.L.[Pen].W.E.[dK].[am]}|CHEM1{[O=C(c1ccccc1C[*:2])[*:1]]}$PEPTIDE1,CHEM1,1:R1-1:R1|PEPTIDE1,CHEM1,6:R3-1:R2$$$V2.0)	< 0.333 h
CCCC[C@@H]1NC(=O)[C@H]([C@@H](C)O)NC(=O)[C@H](CC(=O)O)NC(=O)[C@H](CO)NC(=O)[C@H](CCCNC(=N)N)N(C)C(=O)c2ccccc2CSC(C)(C)[C@@H](C(=O)N[C@@H](Cc2c[nH]c3ccccc23)C(=O)N[C@@H](CCC(=O)O)C(=O)N[C@H](CCCCN)C(N)=O)NC1=O [compound 154] (HELM PEPTIDE1{[meR].S.D.T.[Nle].[Pen].W.E.[dK].[am]}|CHEM1{[O=C(c1ccccc1C[*:2])[*:1]]}$PEPTIDE1,CHEM1,1:R1-1:R1|PEPTIDE1,CHEM1,6:R3-1:R2$$$V2.0)	< 0.333 h

# half-life lookup, item CC(C)C[C@@H]1NC(=O)[C@H]([C@@H](C)O)NC(=O)[C@H](CC(=O)O)NC(=O)[C@H](CO)NC(=O)[C@H](CCCNC(=N)N)N(C)C(=O)c2ccccc2CSC(C)(C)[C@@H](C(=O)N[C@@H](Cc2c[nH]c3ccccc23)C(=O)N[C@@H](Cc2ccc(O)cc2)C(=O)N(C)[C@@H](CCCCN)C(N)=O)NC1=O [compound 153] (HELM PEPTIDE1{[meR].S.D.T.L.[Pen].W.Y.[meK].[am]}|CHEM1{[O=C(c1ccccc1C[*:2])[*:1]]}$PEPTIDE1,CHEM1,1:R1-1:R1|PEPTIDE1,CHEM1,6:R3-1:R2$$$V2.0) > 3 h

====

Target: RPMI 8866 cells (Homo sapiens, UniProt P13612+P26010)
Assay: α4β7-MAdCAM Cell Adhesion Assay
Assay type: cell-based
Details: thioether peptide dimers, Table 7; read-out: Cell-Adhesion A4B7
Procedure: α4β7-MAdCAM Cell Adhesion Assay […] A Nunc MaxiSorp plate was coated with rh MAdCAM-1/Fc Chimera (R&D #6065-MC) at 200 ng per well in 50 ul per well in 1×PBS and incubated at 4° C. overnight. […] The plate was shaken for 5 min and the absorbance at 570 nm is measured. To calculate the dose response, the absorbance value of control wells not containing cells was subtracted from each test well.
pIC50: −log10 of the molar value. Where a SMILES comes first, the peptide text is derived from it.
observable: pIC50

compound	result
CC(C)C[C@@H]1NC(=O)[C@H]([C@@H](C)O)NC(=O)[C@H](CC(=O)O)NC(=O)[C@H](CO)NC(=O)[C@H](CCCNC(=N)N)N(C)C(=O)C(C)SC[C@@H](C(=O)N[C@@H](Cc2c[nH]c3ccccc23)C(=O)N[C@H](CCCCN)C(N)=O)NC1=O (single isomer, unassigned) [compound 144]	< 6.00

Continue with the next compound.
# pIC50 lookup, item CC(C)C[C@@H]1NC(=O)[C@H]([C@@H](C)O)NC(=O)[C@H](CC(=O)O)NC(=O)[C@H](CO)NC(=O)[C@H](CCCNC(=N)N)N(C)C(=O)c2ccccc2CSC(C)(C)[C@@H](C(=O)N[C@@H](Cc2c[nH]c3ccccc23)C(=O)N[C@H](CCC(=O)O)C(=O)N[C@H](CCC(=O)O)C(=O)N[C@H](CCCCN)C(N)=O)NC1=O [compound 200] (HELM PEPTIDE1{[meR].S.D.T.L.[Pen].W.[dE].[dE].[dK].[am]}|CHEM1{[O=C(c1ccccc1C[*:2])[*:1]]}$PEPTIDE1,CHEM1,1:R1-1:R1|PEPTIDE1,CHEM1,6:R3-1:R2$$$V2.0) > 7.60
